# Tested on: CCRIS mutagenicity, Ames/micronucleus/aberration tests
# Experiment Notes: CCRIS mutagenicity studies
# Study Conditions: Test System: AMES SALMONELLA TYPHIMURIUM; Strain/Indicator: TA97; Metabolic Activation: RAT, LIVER, S-9, AROCLOR 1254 (10%); Method: PREINCUBATION
Activity calls are given as the source filed them. How the calls were made is not given here.
Answer with one of the outcomes t = active, f = inactive

See these solved cases before continuing.
- Smi: "FC(F)(F)c1cccc(Cl)c1"
  Target Entity: "CCRIS mutagenicity, Ames/micronucleus/aberration tests"
  Label Value: "f"
- Smi: "C1=C\\CC/C=C\\CC/1.C1=C\\CC/C=C\\CC/1.[Ni]"
  Target Entity: "CCRIS mutagenicity, Ames/micronucleus/aberration tests"
  Label Value: "f"
- Smi: "CCN(CC)c1cccc(O)c1"
  Target Entity: "CCRIS mutagenicity, Ames/micronucleus/aberration tests"
  Label Value: "t"

As a next step, examine the compound that follows.
# input For ClCC(Cl)CCl , what call appears in the results of this test?
# output t
